From: patent US5744452A

Test system: murine bone marrow cells
Test: .THETA.-antigen expression on murine bone marrow cells (T-lymphocyte precursor differentiation)
Type: cell-based, CBA strain mice
Details: Table 5; peptide 0.01 μg/ml
Where a SMILES comes first, the peptide text is derived from it.
attribute.measured: Percent of murine bone marrow cells expressing .THETA.-antigen (%)
One number for each entry, in %.

molecule: CN[C@@H](CCC(=O)N[C@@H](Cc1c[nH]c2ccccc12)C(=O)O)C(=O)O
reported.measurement: 34

molecule: N[C@@H](CCC(=O)O)C(=O)N[C@@H](Cc1c[nH]c2ccccc12)C(=O)O [Thymogen, L-glutamyl-L-tryptophan, reference compound] (H-Glu-Trp-OH)
reported.measurement: 18

molecule: N[C@@H](CCC(=O)N[C@@H](Cc1c[nH]c2ccccc12)C(=O)O)C(=O)O
reported.measurement: 35

molecule: CC(=O)N[C@@H](CCC(=O)N[C@@H](Cc1c[nH]c2ccccc12)C(=O)O)C(=O)O
reported.measurement: 35

# evaluate next
## Input Give the reported Percent of murine bone marrow cells expressing .THETA.-antigen for this molecule. `N[C@@H](CCC(=O)N[C@@H](Cc1cn(C=O)c2ccccc12)C(=O)O)C(=O)O`
## Output 30
